Ref: paper PMC4942689

# testSystem: CNGA2:A4 channels (Rattus norvegicus, UniProt Q00195+Q64359)
# Sequence (Q00195 whole entry): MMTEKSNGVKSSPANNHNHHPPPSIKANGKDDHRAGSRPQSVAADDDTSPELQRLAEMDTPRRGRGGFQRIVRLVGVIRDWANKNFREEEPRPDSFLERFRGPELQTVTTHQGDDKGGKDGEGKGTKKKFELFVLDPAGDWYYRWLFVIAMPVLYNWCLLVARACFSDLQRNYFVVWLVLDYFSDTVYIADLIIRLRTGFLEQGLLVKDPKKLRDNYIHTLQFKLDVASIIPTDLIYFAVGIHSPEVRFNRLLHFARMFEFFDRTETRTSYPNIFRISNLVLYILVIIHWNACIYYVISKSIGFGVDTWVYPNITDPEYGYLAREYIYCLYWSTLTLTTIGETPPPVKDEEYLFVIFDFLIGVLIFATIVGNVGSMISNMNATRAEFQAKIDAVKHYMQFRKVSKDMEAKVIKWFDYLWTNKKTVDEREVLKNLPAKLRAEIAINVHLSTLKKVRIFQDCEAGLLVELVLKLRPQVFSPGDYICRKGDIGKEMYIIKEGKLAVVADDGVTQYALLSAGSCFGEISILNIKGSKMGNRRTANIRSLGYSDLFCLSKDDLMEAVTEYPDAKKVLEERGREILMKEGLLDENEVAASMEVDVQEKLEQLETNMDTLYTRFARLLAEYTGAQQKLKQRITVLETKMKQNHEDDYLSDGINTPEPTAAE
# Sequence (Q64359 whole entry): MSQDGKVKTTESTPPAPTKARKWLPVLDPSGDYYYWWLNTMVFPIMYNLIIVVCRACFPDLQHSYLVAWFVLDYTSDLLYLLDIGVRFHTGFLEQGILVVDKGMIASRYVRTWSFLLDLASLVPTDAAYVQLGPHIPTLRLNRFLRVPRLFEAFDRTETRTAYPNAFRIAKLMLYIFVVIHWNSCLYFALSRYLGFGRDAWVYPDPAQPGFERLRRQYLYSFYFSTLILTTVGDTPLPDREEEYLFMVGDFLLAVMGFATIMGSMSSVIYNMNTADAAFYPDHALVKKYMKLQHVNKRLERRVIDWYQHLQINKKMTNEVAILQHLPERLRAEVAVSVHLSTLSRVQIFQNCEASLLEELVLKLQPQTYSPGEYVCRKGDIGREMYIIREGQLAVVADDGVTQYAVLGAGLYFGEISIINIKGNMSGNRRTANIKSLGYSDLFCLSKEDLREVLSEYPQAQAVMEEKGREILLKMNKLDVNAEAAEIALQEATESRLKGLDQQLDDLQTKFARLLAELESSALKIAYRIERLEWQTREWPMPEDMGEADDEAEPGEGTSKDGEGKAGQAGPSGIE
# protocolText: Concentration-activation relationship, inside-out patch-clamp
# settings: Equation 1
assayMetric: pEC50
Recall that pEC50 is obtained by taking minus log10 of the concentration measured in molar.

Problem: Form field: reported pEC50 of Nc1nc2c(ncn2[C@@H]2O[C@@H]3COP(=O)(O)O[C@H]3[C@H]2O)c(=O)[nH]1 [cGMP]
Solution: 5.89

---

# testSystem: CNGA2:A4:B1b channels (Rattus norvegicus, UniProt A0A8I5ZN27+Q00195+Q64359)
# Construct: expressed in transfected cells; host or cells: Xenopus laevis oocytes (cRNA injection 2:1:1), excised inside-out patches
# Sequence (Q00195 whole entry): as the sequence (Q00195 whole entry) above
# Sequence (Q64359 whole entry): as the sequence (Q64359 whole entry) above
# Sequence (A0A8I5ZN27 1-858 isoform A0A8I5ZN27-2): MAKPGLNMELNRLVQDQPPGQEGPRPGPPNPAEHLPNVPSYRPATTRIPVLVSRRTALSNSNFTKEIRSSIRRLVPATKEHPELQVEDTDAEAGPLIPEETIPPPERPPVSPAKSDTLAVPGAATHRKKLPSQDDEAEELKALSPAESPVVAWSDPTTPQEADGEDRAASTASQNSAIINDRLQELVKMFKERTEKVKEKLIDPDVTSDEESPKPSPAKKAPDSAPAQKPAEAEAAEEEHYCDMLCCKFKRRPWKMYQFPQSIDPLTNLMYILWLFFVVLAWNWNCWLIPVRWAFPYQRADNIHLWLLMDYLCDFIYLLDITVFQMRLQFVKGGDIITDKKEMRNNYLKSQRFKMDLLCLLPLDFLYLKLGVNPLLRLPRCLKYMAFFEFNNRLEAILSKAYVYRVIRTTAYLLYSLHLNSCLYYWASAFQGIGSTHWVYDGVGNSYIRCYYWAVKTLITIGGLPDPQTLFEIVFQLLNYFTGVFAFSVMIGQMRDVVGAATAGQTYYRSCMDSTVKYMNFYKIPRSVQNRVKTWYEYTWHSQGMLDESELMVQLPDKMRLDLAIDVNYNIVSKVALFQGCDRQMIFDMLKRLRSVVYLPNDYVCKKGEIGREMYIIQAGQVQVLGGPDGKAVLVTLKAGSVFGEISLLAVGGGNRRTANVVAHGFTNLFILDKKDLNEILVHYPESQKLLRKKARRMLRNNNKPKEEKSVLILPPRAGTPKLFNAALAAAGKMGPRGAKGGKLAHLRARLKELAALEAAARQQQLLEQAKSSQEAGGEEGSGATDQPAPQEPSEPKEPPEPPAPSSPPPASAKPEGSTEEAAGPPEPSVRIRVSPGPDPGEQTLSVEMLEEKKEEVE
# protocolText: Concentration-activation relationship, inside-out patch-clamp
# Assay type: biochemical
# settings: CNGA2:A4:B1b; Equation 1
assayMetric: EC50 (nM)
All answers are understood in nM, so give the number only.

Problem: Form field: reported EC50 of Nc1nc2c(ncn2[C@@H]2O[C@@H]3COP(=O)(O)O[C@H]3[C@H]2O)c(=O)[nH]1
Solution: 760
